Please provide measured kon for the entries that follow.
Target: T1, macaca fascicularis (mf) PRLR.mmh (soluble monomeric monkey PRLR) (Macaca fascicularis)
T1 construct: called soluble monomeric PRLR protein
T1 chain: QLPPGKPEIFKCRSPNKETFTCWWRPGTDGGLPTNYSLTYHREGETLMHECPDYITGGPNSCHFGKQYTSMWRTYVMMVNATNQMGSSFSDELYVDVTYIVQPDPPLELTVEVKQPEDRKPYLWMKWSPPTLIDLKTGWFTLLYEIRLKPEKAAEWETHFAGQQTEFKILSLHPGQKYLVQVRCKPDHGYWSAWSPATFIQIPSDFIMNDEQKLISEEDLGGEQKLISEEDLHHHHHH
Assay: SPR Biacore, 25 C, mAb capture

binder: H1H6774P (antibody, human IgG1, V domains shown, Human IgG1 Fc (H1H)) VH: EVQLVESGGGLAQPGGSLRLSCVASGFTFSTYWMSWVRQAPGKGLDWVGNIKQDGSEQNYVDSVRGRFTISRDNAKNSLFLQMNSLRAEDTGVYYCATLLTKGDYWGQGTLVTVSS VL: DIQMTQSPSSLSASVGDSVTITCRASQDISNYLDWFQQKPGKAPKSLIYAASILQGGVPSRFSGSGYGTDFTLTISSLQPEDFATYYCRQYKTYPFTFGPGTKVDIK
kon: 495000 M⁻¹ s⁻¹

Give kon for all binders that follow.
1. H1H6781P (antibody, human IgG1, V domains shown, Human IgG1 Fc (H1H)) VH: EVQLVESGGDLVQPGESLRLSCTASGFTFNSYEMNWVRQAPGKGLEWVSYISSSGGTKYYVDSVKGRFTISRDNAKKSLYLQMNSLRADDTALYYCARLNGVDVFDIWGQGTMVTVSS VL: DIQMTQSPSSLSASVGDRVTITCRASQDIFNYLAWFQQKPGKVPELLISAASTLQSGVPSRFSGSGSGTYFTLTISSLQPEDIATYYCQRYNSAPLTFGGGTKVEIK
2. H1H6966N (antibody, human IgG1, V domains shown, Tested with human IgG1 Fc (H1H); also called H2M6966N) VH: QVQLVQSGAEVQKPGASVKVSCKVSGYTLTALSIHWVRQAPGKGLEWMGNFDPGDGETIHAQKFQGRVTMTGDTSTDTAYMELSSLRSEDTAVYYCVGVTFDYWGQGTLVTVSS VL: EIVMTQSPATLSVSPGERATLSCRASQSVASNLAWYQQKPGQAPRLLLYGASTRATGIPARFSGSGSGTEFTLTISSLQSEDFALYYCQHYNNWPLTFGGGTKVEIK

Response:
["143000 M⁻¹ s⁻¹", "782000 M⁻¹ s⁻¹"]
